pIC50: −log10 of the molar value.
Literature compilation of pIC50 measurements on TYRO3 (Homo sapiens).

What the record says about COCC(C)Nc1ncc2c(C3CCN(c4ccnc(C)n4)C3)cc(C3CCC(O)CC3)n2n1 (centres unmarked) : pIC50 is ≥ 7.00

What the record says about Cc1cn(C)nc1-n1c(=O)c(C(=O)Nc2ccc(-c3cc(C4CCN(C(=O)C(C)C)CC4)n4ncnc(N)c34)cc2)cn(C(C)C)c1=O : pIC50 is < 7.00

What the record says about O[C@H]1CC[C@H](c2cnc(OC3CCNCC3)c3cnc(N[C@H]4CCOC4)nc32)CC1 : pIC50 is ≥ 7.00

What the record says about CC[C@H](C)Nc1ncc2c(=O)n([C@H]3CC[C@H](N(C)C)C3)cc([C@H]3CC[C@H](O)CC3)c2n1 : pIC50 is ≥ 7.00

What the record says about CCCCC[C@H](C)Nc1ncc2c(=O)n(C3CCOCC3)cc([C@H]3CC[C@H](O)CC3)c2n1 : pIC50 is ≥ 7.00

What the record says about COC[C@H](C)Nc1ncc2c(-c3cnn(C(C)(C)C(=O)N4CC(C)(O)C4)c3)cc([C@H]3CC[C@H](O)CC3)n2n1 : pIC50 is ≥ 7.00

What the record says about CCCC(C)Nc1ncc2c(N3CC(N(C)C)C3)ncc([C@H]3CC[C@H](O)CC3)c2n1 (some centres unmarked) : pIC50 is < 5.00

What the record says about COC[C@H](C)Nc1ncc2c(-c3ccnc(N4CCN(CC5COC5)CC4)c3)cc([C@H]3CC[C@H](O)CC3)n2n1 : pIC50 is ≥ 7.00

What the record says about COC[C@H](C)Nc1ncc2c(-c3cnn(Cc4ccnnc4)c3)cc([C@H]3CC[C@H](O)CC3)n2n1 : pIC50 is ≥ 7.00

What the record says about CC(=O)c1cc(C(=O)Nc2ccc(-c3cc(C4CCN(C(=O)C(C)C)CC4)n4ncnc(N)c34)cc2)c(=O)n(-c2ccccc2)c1C : pIC50 is 7.00 to 8.00

What the record says about O[C@H]1CC[C@H](c2cnc(OC3CCNCC3)c3cnc(NC4CCCCC4)nc32)CC1 : pIC50 is < 5.00

What the record says about C[C@@H]1CCCN1C1(C)CCc2ccc(-c3cnc4[nH]nc(-c5ccc(C(C)(C)O)nc5)c4c3)cc2CC1 (some centres unmarked) : pIC50 is > 7.00

What the record says about COc1cc2nccc(Oc3ccc(NC(=O)c4nn(C5CCOCC5)cc(-c5ccc(F)cc5)c4=O)nc3)c2cc1OC : pIC50 is 7.72

What the record says about COC[C@H](C)Nc1ncc2c(O[C@H]3C[C@@H](O)C3)ncc([C@H]3CC[C@H](O)CC3)c2n1 : pIC50 is ≥ 7.00

What the record says about CC[C@H](C)Nc1ncc2c(O[C@H]3CC[C@](C)(O)CC3)ncc([C@H]3CC[C@H](O)CC3)c2n1 : pIC50 is 6.00 to 7.00

What the record says about CCn1cc(C(=O)Nc2ccc(-c3cc(C4CCN(C(=O)N5CCOCC5)CC4)n4ncnc(N)c34)cc2)c(=O)n(-c2ccc(F)cc2)c1=O : pIC50 is < 7.00

What the record says about Nc1ncnn2c(C3CCN(CCO)CC3)cc(-c3ccc(NC(=O)c4cccn(-c5ccccc5)c4=O)cc3F)c12 : pIC50 is 7.00 to 8.00

What the record says about COc1cc2nccc(Oc3ccc(NC(=O)c4cc(SC)n(-c5ccc(F)cc5)n4)c(F)c3)c2cc1OC : pIC50 is > 6.30

What the record says about CC(C)C(=O)N1CCC(c2cc(-c3ccc(NC(=O)c4cn(C(C)C)c(=O)n(-c5cnn(C)c5)c4=O)cc3)c3c(N)ncnn23)CC1 : pIC50 is < 7.00

What the record says about CC[C@H](C)Nc1ncc2c(-c3ccc(CN4CCN(C)CC4)cc3)cc([C@H]3CC[C@](C)(O)CC3)n2n1 (relative stereo) : pIC50 is ≥ 7.00

What the record says about CNS(=O)(=O)c1cncc(-c2cc([C@H]3CC[C@H](O)CC3)n3nc(N[C@@H](C)COC)ncc23)c1 : pIC50 is ≥ 7.00

What the record says about COC[C@H](C)Nc1ncc2c(-c3cnn(C4COC4)c3)cc(-c3ccc(OC)cc3)n2n1 : pIC50 is ≥ 7.00

What the record says about C[C@@H]1CCCN1C1(C)CCc2ccc(-c3cnc4[nH]nc(-c5ccc(C(N)=O)c(Cl)c5)c4c3)cc2CC1 (some centres unmarked) : pIC50 is > 7.00
